# Experiment: self-splicing fitness, log relative to wild type (ln ratio); higher = more splicing; Tetrahymena group I intron in knt gene, E. coli kanamycin selection, DiMSum; sequences stand for … in CUCUCU…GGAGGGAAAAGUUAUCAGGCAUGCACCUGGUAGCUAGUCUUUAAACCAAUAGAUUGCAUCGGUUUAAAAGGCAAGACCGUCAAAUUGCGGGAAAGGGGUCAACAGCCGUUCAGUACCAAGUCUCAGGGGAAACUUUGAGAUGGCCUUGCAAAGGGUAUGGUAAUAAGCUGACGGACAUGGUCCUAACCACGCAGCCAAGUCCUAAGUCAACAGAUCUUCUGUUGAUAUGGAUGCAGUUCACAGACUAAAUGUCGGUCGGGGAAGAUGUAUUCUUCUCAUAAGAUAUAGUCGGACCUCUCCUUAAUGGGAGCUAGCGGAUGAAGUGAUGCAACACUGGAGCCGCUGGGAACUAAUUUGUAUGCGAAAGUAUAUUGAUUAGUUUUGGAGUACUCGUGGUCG;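 also: selection with 25 µg/mL kanamycin versus none on LB agar overnight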
# Run conditions: 37 °C
Short version: self-splicing fitness (ln) at least -1 is Yes, less is No.

Residues | Qualitative label
UGCGAGCAAUAUUACGCCUG | Yes
GUCAAGCAAUAUUACGUUCC | Yes

Exercise: Exam item: decide whether the reported self-splicing fitness (ln) for AGAUAGCAAUAUUACGGGAU is at least -1.
Key: No

Exercise: Does UGCUAGCAAUAUUACGUUCG have a reported self-splicing fitness (ln) of at least -1?
Key: Yes

Exercise: Does self-splicing fitness (ln) meet or surpass -1 for CAGGAGCAAUAUUACGCCGU ?
Key: No

Exercise: Please indicate if the recorded self-splicing fitness (ln) for AAUCAGCAAUAUUACGAGAG meets or exceeds -1.
Key: No

Exercise: Please tell me: is the sequence AGCCAGCAAUAUUACGUACC at or over -1 in terms of self-splicing fitness (ln)?
Key: Yes

Exercise: Exam item: decide whether the reported self-splicing fitness (ln) for CAUCAGCAAUAUUACGUGAG is at least -1.
Key: Yes

Exercise: Determine whether this sequence has self-splicing fitness (ln) no lower than -1: CACGAGCAAUAUUACGCAUA
Key: No

Exercise: Hi, just wondering whether AGCAAGCAAUAUUACGUGUA shows self-splicing fitness (ln) of -1 or higher.
Key: No

Exercise: Decide: self-splicing fitness (ln) of ACUUAGCAAUAUUACGGGGA >= -1?
Key: No

Exercise: Reported self-splicing fitness (ln) reaches at least -1 for UCAUAGCAAUAUUACGAAUA ?
Key: No

Exercise: Does the reported self-splicing fitness (ln) for GGUGAGCAAUAUUACGACCA fall at or above the -1 mark?
Key: Yes

###

# Experiment: self-splicing fitness, log relative to wild type (ln ratio); higher = more splicing; Tetrahymena group I intron in knt gene, E. coli kanamycin selection, DiMSum; sequences stand for … in CUCUCU…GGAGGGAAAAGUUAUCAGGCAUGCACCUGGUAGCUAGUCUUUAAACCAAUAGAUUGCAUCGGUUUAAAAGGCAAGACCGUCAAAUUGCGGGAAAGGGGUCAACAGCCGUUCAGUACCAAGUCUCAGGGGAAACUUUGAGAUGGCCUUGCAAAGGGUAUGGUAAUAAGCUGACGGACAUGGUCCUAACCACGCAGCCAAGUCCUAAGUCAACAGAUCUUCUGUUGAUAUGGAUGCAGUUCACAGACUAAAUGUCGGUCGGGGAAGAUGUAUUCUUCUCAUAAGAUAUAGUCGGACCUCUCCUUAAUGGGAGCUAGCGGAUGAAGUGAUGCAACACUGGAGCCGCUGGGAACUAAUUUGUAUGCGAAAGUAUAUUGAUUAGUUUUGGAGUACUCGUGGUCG
# Run conditions: 30 °C
The reader will find reported self-splicing fitness (ln) values listed item by item below.
Response field accepts a number only; no unit should be typed.

Exercise: Quick one: self-splicing fitness (ln) of AGAAAGCAAUAUUACGGACG ?
Key: -0.883

Exercise: For CAACAGCAAUAUUACGACAC , what is its reported self-splicing fitness (ln)?
Key: -2.93

Exercise: Which self-splicing fitness (ln) is listed for UCAGAGCAAUAUUACGACGU ?
Key: -1.87

Exercise: What does the data say about its self-splicing fitness (ln)? Entry: AGCCAGCAAUAUUACGCGCG
Key: -1.15

Exercise: self-splicing fitness (ln) lookup needed for AGGCAGCAAUAUUACGUCUU , thanks.
Key: -4.07

Exercise: Returns the measured self-splicing fitness (ln) for the input sequence. Input: AUCAAGCAAUAUUACGACCC
Key: -1.34

Exercise: Please look up its self-splicing fitness (ln): AUUUAGCAAUAUUACGAACU
Key: 0.198

Exercise: Query: self-splicing fitness (ln); subject: CUACAGCAAUAUUACGUCGA
Key: -3.59
